IC50: recorded values
System: P. Falciparum NF54
ASSAY_NOTES: Plasmodium falciparum in vitro assay ([3H]-hypoxanthine incorporation)
Assay type: cell-based
CONDITION_SET: Plasmodium falciparum, Erythrocyte, P. Falciparum NF54, erythrocytic stages in human red blood cells, 50% human serum
Your answer should be a plain number; it is taken to be in nM.

CPD_SMILES	IC50 [nM]
CN1CCC(N2CCC(N(Cc3ccc(N(C)c4ccncc4)nc3)C(=O)/C=C/c3ccc(C(F)(F)F)cc3)CC2)CC1	39
CN(c1ccncc1)c1ccc(CN(C(=O)/C=C/c2ccc(C(F)(F)F)nc2)C2CCN(Cc3ccccc3)CC2)cc1	58
Cc1cc(Nc2ccc(CN(C(=O)/C=C/c3ccc(Cl)cc3)C3CCN(C4CC4)CC3)cc2)ccn1	174
CN(c1ccncc1)c1ccc(CN(C(=O)/C=C/c2ccc(S(C)(=O)=O)cc2)C2CCN(Cc3ccccc3)CC2)cc1	160

Attention now turns to another entry.
# compound `Cc1cc(Nc2ccc(CN(C(=O)/C=C/c3ccc(C(F)(F)F)cc3)C3CCN(Cc4ncn5ccccc45)CC3)cc2)ccn1` ; its IC50 = 168

FYI, the data here is from patent US9637473B2.
